# System: thyroid hormone receptor (endogenous TRα and TRβ)
# Parameters: species or system GH3-TRE-Luc (rat pituitary); GH3-TRE-Luc luciferase reporter, antagonist mode against 1 nM T3, loss of signal, qHTS
# Experimental Parameters: read-out: Average AC50 (uM) GH3-TRE-Antag, antagonist mode, 1 nM T3, no GH3 cytotoxicity hit
Counter-ions that a name gives are not always drawn.
Attribute Measured: AC50 (µM)
Give bare numbers, in µM.

Worked examples follow.
>>> data_value("CO/C=C(/C(=O)OC)c1ccccc1COc1cccc(C(F)(F)F)n1 [Picoxystrobin]")
0.276
>>> data_value("Cn1cc(C(=O)[C@@H]2CCc3nc[nH]c3C2)c2ccccc21 [Ramosetron hydrochloride]")
40.9
>>> data_value("O=C(CCC1CCN(Cc2ccccc2)CC1)c1ccc2c(c1)NCCCC2 [Zanapezil fumerate]")
12.4
>>> data_value("CCCCCc1ccco1 [2-Pentylfuran]")
61.2
>>> data_value("COCc1c(C(C)C)nc(C(C)C)c(/C=C/[C@@H](O)C[C@@H](O)CC(=O)O)c1-c1ccc(F)cc1 [Cerivastatin sodium]")
13.7

State recorded AC50 for all listed molecules.
1. Cc1ccccc1C(=O)Nc1ccc(C(=O)N2CCCC(O)c3cc(Cl)ccc32)c(C)c1 (stereo not drawn) [Tolvaptan]
2. Cc1cc(O)c2c(O)c3c(O)cccc3cc2c1 [Chrysarobin]
3. COc1cccc(N)c1 [3-Methoxyaniline]

Solution:
[21.9, 28.1, 80.8]

====

# Test system: thyroid hormone receptor (endogenous TRα and TRβ)
# Design: species or system GH3-TRE-Luc (rat pituitary); GH3-TRE-Luc luciferase reporter, antagonist mode against 1 nM T3, loss of signal, qHTS
# Experimental Parameters: read-out: Average AC50 (uM) GH3-TRE-Antag, antagonist mode, 1 nM T3, no GH3 cytotoxicity hit
Counter-ions that a name gives are not always drawn.
Attribute Measured: AC50 (µM)
One number for each entry, in µM.

Worked examples follow.
>>> data_value("CC(C)=CCC/C(C)=C/CC/C(C)=C/CC/C(C)=C/CC1=C(C)C(=O)c2ccccc2C1=O")
24.9
>>> data_value("CCCCCCCCCCCCCCC(Br)C(=O)O (centres unmarked)")
53.6
>>> data_value("CCCCCCC(=O)O[C@H]1CC[C@H]2[C@@H]3CCc4cc(O)ccc4[C@H]3CC[C@]12C [Estradiol enanthate]")
18.9
>>> data_value("O=[N+]([O-])c1cc[n+]([O-])cc1 [4-Nitropyridine-1-oxide]")
80.5
>>> data_value("CC(=O)C(Cl)C(=O)N(C)C (centres unmarked) [2-Chloro-N,N-dimethyl-3-oxobutanamide]")
90.4

State recorded AC50 for all listed molecules.
1. Cl/C(=C\n1cncn1)c1ccc(Cl)cc1Cl [Loreclezole hydrochloride]
2. CCN(CC)C(=O)N[C@H]1C[C@@H]2c3cccc4[nH]cc(c34)C[C@H]2N(C)C1 [Terguride]
3. COc1ccc2c(c1)c1c3n2CCN(C)C3=NCC1

Solution:
18.3
22.1
28.1

====

# System: thyroid hormone receptor (endogenous TRα and TRβ)
# Parameters: species or system GH3-TRE-Luc (rat pituitary); GH3-TRE-Luc luciferase reporter, antagonist mode against 1 nM T3, loss of signal, qHTS
# Experimental Parameters: read-out: Average AC50 (uM) GH3-TRE-Antag, antagonist mode, 1 nM T3, no GH3 cytotoxicity hit, Average AC50 (uM) GH3-TRE-Antag, 24 h
Structures can show the parent of a compound that is named as a salt.
Could you please report measured log10 of AC50 for the items listed next?
Recorded AC50 (log10, µM)

>>> data_value("OCCOCCN1CCN(C2=Nc3ccccc3Sc3ccccc32)CC1")
1.53
>>> data_value("CC(C)n1c(/C=C/[C@H](O)C[C@H](O)CC(=O)O)c(-c2ccc(F)cc2)c2ccccc21 (racemic) [Fluvastatin]")
1.66
>>> data_value("CCCCCCn1cc[n+](C)c1 [1-Hexyl-3-methylimidazolium tetrafluoroborate]")
1.75
>>> data_value("CCCCCC[n+]1ccccc1 [1-Hexylpyridinium trifluoromethanesulfonate]")
1.66
>>> data_value("CC(C)n1c(/C=C/[C@H](O)C[C@H](O)CC(=O)O)c(-c2ccc(F)cc2)c2ccccc21 [Fluvastatin sodium]")
1.59

State recorded log10 of AC50 for all listed compounds.
1. CCCCCCn1cc[n+](C)c1 [1-Hexyl-3-methylimidazolium hexafluorophosphate]
2. Nc1ccc2cc3ccc(N)cc3nc2c1 [Proflavin hydrochloride]
3. CCCCCCCCCCCCOS(=O)(=O)O [Ammonium dodecyl sulfate]

Solution:
1.73
0.51
1.90

State recorded log10 of AC50 for all listed compounds.
1. Nc1ccc2cc3ccc(N)cc3nc2c1 [Proflavin hemisulfate]
2. CCCCCCCCn1cc[n+](C)c1 [1-Methyl-3-octylimidazolium hexafluorophosphate]
3. Nc1c2c(nc3ccccc13)CCCC2
4. CC(C)c1c(C(=O)Nc2ccccc2)c(-c2ccccc2)c(-c2ccc(F)cc2)n1CC[C@@H](O)C[C@@H](O)CC(=O)O

Solution:
0.69
1.52
1.62
-0.49

State recorded log10 of AC50 for all listed compounds.
1. N=C(N)NC(=O)c1nc(Cl)c(N)nc1N [Amiloride]
2. CCCCCCCCn1cc[n+](C)c1 [1-Methyl-3-octylimidazolium chloride]

Solution:
1.21
1.46

====

# Test system: thyroid hormone receptor (endogenous TRα and TRβ)
# Parameters: species or system GH3-TRE-Luc (rat pituitary); GH3-TRE-Luc luciferase reporter, antagonist mode against 1 nM T3, loss of signal, qHTS
# Experimental Parameters: read-out: Average AC50 (uM) GH3-TRE-Antag, antagonist mode, 1 nM T3, no GH3 cytotoxicity hit
Structures can show the parent of a compound that is named as a salt.
Could you please report measured AC50 for the items listed next?
Numbers only, in µM.

Worked examples follow.
>>> data_value("CCCC(=O)N1CCCN(c2nc(N)c3cc(OC)c(OC)cc3n2)CC1 [Bunazosin hydrochloride]")
47.9
>>> data_value("CC1=CC(C)(C)Nc2ccccc21")
28
>>> data_value("O=C(/C=C/C=C/c1ccc2c(c1)OCO2)N1CCCCC1")
73.5
>>> data_value("O=c1cc(-c2ccccc2)oc2ccc3ccccc3c12")
7.88

Exercise: // fetch AC50 given entry `CCCCCCCCCCCCNC(=N)N`
Solution: 2.89

====

Could you please report measured log10 AC50 for the items listed next?
# System: thyroid hormone receptor (endogenous TRα and TRβ)
# Design: species or system GH3-TRE-Luc (rat pituitary); GH3-TRE-Luc luciferase reporter, antagonist mode against 1 nM T3, loss of signal, qHTS
# Experimental Parameters: read-out: Average AC50 (uM) GH3-TRE-Antag, antagonist mode, 1 nM T3, no GH3 cytotoxicity hit
Counter-ions that a name gives are not always drawn.
Recorded AC50 (log10, µM)

Worked examples follow.
>>> data_value("CCCCCCCCCCCCCCCCCCCCCC(=O)Nc1ccn([C@@H]2O[C@H](CO)[C@@H](O)[C@@H]2O)c(=O)n1 [Enocitabine]")
1.24
>>> data_value("C=CCNC1=C2C[C@@H](C)C[C@H](OC)[C@H](O)[C@@H](C)/C=C(\\C)[C@H](OC(N)=O)[C@@H](OC)/C=C\\C=C(/C)C(=O)NC(=CC1=O)C2=O [Tanespimycin]")
-0.51
>>> data_value("Nc1ccccc1N [1,2-Phenylenediamine dihydrochloride]")
1.97
>>> data_value("CC1(C)C(C=C(Cl)Cl)[C@@H]1C(=O)O[C@@H](C#N)c1ccc(F)c(Oc2ccccc2)c1 (some centres unmarked) [Cyfluthrin]")
1.60

State recorded log10 AC50 for all listed compounds.
1. NNc1ccc(C(=O)O)cc1 [4-Hydrazinobenzoic acid hydrochloride]
2. CC(C(=O)O)c1ccc2c(c1)CC(=O)c1ccccc1S2 (centres unmarked) [Zaltoprofen]
3. CC(C)=CCC/C(C)=C/C=C/C(C)=C/C=C/C(C)=C/C=C/C=C(C)/C=C/C=C(C)/C=C/C=C(\C)CCC=C(C)C [Lycopene]

Solution:
1: 1.93; 2: 1.46; 3: 1.50

====

# Tested on: thyroid hormone receptor (endogenous TRα and TRβ)
# Parameters: species or system GH3-TRE-Luc (rat pituitary); GH3-TRE-Luc luciferase reporter, antagonist mode against 1 nM T3, loss of signal, qHTS
# Experimental Parameters: read-out: Average AC50 (uM) GH3-TRE-Antag, antagonist mode, 1 nM T3, no GH3 cytotoxicity hit
Could you please report measured AC50 for the items listed next?
Give bare numbers, in µM.

Worked examples follow.
>>> data_value("CC(=O)[C@H]1CC[C@H]2[C@@H]3CC=C4C[C@@H](O)CC[C@]4(C)[C@H]3CC[C@]12C [Pregnenolone]")
11.6
>>> data_value("CCN(C(=O)c1cc(C)cc(OC[C@H](C)Nc2ccncc2)c1)C(C)C [GW473178E methyl benzene sulphonic acid]")
51.7
>>> data_value("Cc1c(Nc2ncccc2C(=O)O)cccc1C(F)(F)F [Flunixin meglumine]")
2.85

Exercise: GET AC50 | system: thyroid hormone receptor (endogenous TRα and TRβ) | item: COc1cc2c(cc1N)oc1ccccc12 [2-Methoxy-3-aminodibenzofuran]
Solution: 84.6
